Examples of compounds with documented viability at 48 h, 20 µM follow.
test: Cell viability assay in differentiated neuronal cells (MTT), SHSY5Y; type: cell-based; settings: human, read-out: % Cell viability ± SD, SHSY5Y
Give just the number in %; leave the unit off.

C=C(C)[C@@H]1CCC(C)=C[C@H]1c1c(O)cc(CCCCC)c(CN2CCN(CCO)CC2)c1O; 98.1
C=C(C)[C@@H]1CCC(C)=C[C@H]1c1c(O)cc(CCCCC)c(CN2CCOCC2)c1O; 116
C=C(C)[C@@H]1CCC(C)=C[C@H]1c1c(O)cc(CCCCC)cc1O; 108
C=C(C)[C@@H]1CCC(C)=C[C@H]1c1c(O)cc(CCCCC)c(CN2CCN(C3CC3)CC2)c1O; 96.2
C=C(C)[C@@H]1CCC(C)=C[C@H]1c1c(O)cc(CCCCC)c(CN2CCN(c3ccccc3)CC2)c1O; 95.9
C=C(C)[C@@H]1CCC(C)=C[C@H]1c1c(O)cc(CCCCC)c(CN2CCN(c3ccc(Cl)cc3)CC2)c1O; 90.5
C=C(C)[C@@H]1CCC(C)=C[C@H]1c1c(O)cc(CCCCC)c(CN2CCC(C(C)C)CC2)c1O; 103
C=C(C)[C@@H]1CCC(C)=C[C@H]1c1c(O)cc(CCCCC)c(CN2CCC(Cc3ccccc3)CC2)c1O; 102

Query: I have this compound here, C=C(C)[C@@H]1CCC(C)=C[C@H]1c1c(O)c(CN2CCOCC2)c(CCCCC)c(CN2CCOCC2)c1O , and I need its recorded viability at 48 h, 20 µM.
Reply: 93.6

Query: I have this compound here, C=C(C)[C@@H]1CCC(C)=C[C@H]1c1c(O)cc(CCCCC)c(CN2CCC(c3ccccc3)CC2)c1O , and I need its recorded viability at 48 h, 20 µM.
Reply: 94.5

###

experiment: Cell viability assay in macrophage RAW264.7 cells (MTT); format: cell-based; settings: mouse, RAW264.7, 10 μM, read-out: % cell viability ± SD
measured.metric: viability at 24 h, 10 µM (%)
Give just the number in %; leave the unit off.

Reference set, count: 7
C=C(C)[C@@H]1CCC(C)=C[C@H]1c1c(O)cc(CCCCC)c(CN2CCN(c3ccc(Cl)cc3)CC2)c1O; 89.8
C=C(C)[C@@H]1CCC(C)=C[C@H]1c1c(O)cc(CCCCC)c(CN2CCC(Cc3ccccc3)CC2)c1O; 93
C=C(C)[C@@H]1CCC(C)=C[C@H]1c1c(O)cc(CCCCC)c(CN2CCC(c3ccccc3)CC2)c1O; 90.4
C=C(C)[C@@H]1CCC(C)=C[C@H]1c1c(O)cc(CCCCC)c(CN2CCC(O)CC2)c1O; 90.6
C=C(C)[C@@H]1CCC(C)=C[C@H]1c1c(O)cc(CCCCC)c(CN2CCN(C)CC2)c1O; 87.1
C=C(C)[C@@H]1CCC(C)=C[C@H]1c1c(O)cc(CCCCC)c(CNc2cnccn2)c1O; 87.7
C=C(C)[C@@H]1CCC(C)=C[C@H]1c1c(O)c(CN2CCOCC2)c(CCCCC)c(CN2CCOCC2)c1O; 92.4

Let's switch to this compound now.
Query: I have this compound here, C=C(C)[C@@H]1CCC(C)=C[C@H]1c1c(O)cc(CCCCC)c(CN2CCN(CCO)CC2)c1O , and I need its recorded viability at 24 h, 10 µM.
Reply: 95
